Measured abundance fitness by item
B1: Zinc finger MYM-type protein 3, residues 405 to 444; numbered along this chain, Q14202 (parent)
chain: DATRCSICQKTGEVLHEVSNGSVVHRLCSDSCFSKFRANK

variants of: B1; experiment: abundance fitness (aPCA) (normalised: wild type 0, dead -1); higher = more abundant; growth selection in yeast, the domain comes from the species named; settings: Homo sapiens
Number only, please.

- changes: "L27W"
  abundance fitness: -0.205
- changes: "C8L"
  abundance fitness: -0.843
- changes: "D30H"
  abundance fitness: -0.425
- changes: "S31L"
  abundance fitness: -0.022
- changes: "E13G"
  abundance fitness: -0.271

Sample `L15Q` — what was its abundance fitness? 0.102

Sample `C5L` — what was its abundance fitness? -0.835

Sample `S31W` — what was its abundance fitness? -0.218

Sample `G21N` — what was its abundance fitness? -0.646

Sample `V14G` — what was its abundance fitness? -0.08

Sample `E13W` — what was its abundance fitness? -0.696

Sample `C8E` — what was its abundance fitness? -0.85

Sample `E17Y` — what was its abundance fitness? -1.02
